target: Alkaline phosphatase, placental type (Homo sapiens) (UniProt P05187); test: activation of placental alkaline phosphatase – biochemical, uHTS hits, luminescence, selectivity assay for human IAP activator project, dose response (AID 488888); settings: purified PLAP, CDP-Star luminescence, 30 min
Sequence (P05187 whole entry, looked up): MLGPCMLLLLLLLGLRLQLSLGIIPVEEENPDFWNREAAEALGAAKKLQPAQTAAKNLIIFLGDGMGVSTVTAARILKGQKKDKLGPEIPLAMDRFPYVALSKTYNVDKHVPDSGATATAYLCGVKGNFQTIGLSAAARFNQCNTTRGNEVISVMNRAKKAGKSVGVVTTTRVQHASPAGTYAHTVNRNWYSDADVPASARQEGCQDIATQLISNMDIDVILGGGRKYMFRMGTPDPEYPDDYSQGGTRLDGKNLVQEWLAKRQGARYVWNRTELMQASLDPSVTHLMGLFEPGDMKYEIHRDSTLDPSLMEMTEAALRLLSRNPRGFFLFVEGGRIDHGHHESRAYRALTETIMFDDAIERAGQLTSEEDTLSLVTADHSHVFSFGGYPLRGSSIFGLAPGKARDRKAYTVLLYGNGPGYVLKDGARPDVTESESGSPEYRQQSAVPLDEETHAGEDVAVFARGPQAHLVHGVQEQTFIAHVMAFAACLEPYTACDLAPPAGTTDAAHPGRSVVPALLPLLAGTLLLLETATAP
pEC50: −log10 of the molar value.
Let's look at some compounds and their measured pEC50.
Readout: pEC50

{"Compound": "CC1=NN(c2nc3ccccc3[nH]2)C(=O)/C1=C/N(C)C", "Readout": "pEC50", "Experimental result": 4.82}
{"Compound": "CCn1nc(C)c(CN2CCC(C(=O)Nc3cccc(-c4cccc(F)c4)c3)CC2)c1C", "Readout": "pEC50", "Experimental result": 4.27}
{"Compound": "CC(C)Oc1ccc(C(=O)Nc2ncn[nH]2)cc1", "Readout": "pEC50", "Experimental result": 4.62}
{"Compound": "Cc1ccc(S(=O)(=O)NCCC(=O)NNC(=O)COc2ccc(Br)cc2)cc1C", "Readout": "pEC50", "Experimental result": 4.78}
{"Compound": "Cc1nc2c3ccccc3nc(NNC(=O)CCC(=O)NCCN3CCN(c4ccccc4)CC3)n2n1", "Readout": "pEC50", "Experimental result": 4.82}
{"Compound": "CCOC(=O)c1cnc(-n2nc(C)cc2C)nc1NNc1nc(C)cc(C)n1", "Readout": "pEC50", "Experimental result": 4.60}
{"Compound": "O=C(NNC(=S)NCc1ccco1)c1ccccc1Br", "Readout": "pEC50", "Experimental result": 4.86}
{"Compound": "O=C(N/N=C/c1ccc(O)cc1O)C(=O)N/N=C/c1ccc(O)cc1O", "Readout": "pEC50", "Experimental result": 5.24}
{"Compound": "CCOc1ccccc1CN1CCC(n2nccc2NC(=O)CCc2ccccc2)CC1", "Readout": "pEC50", "Experimental result": 4.08}
{"Compound": "CC(C)(C)OC(=O)N1CCC(NC(=O)c2[nH]cnc2C(=O)Nc2ccon2)CC1", "Readout": "pEC50", "Experimental result": 4.82}
{"Compound": "O=C(Nc1ccon1)c1nc[nH]c1C(=O)NCc1ccccc1", "Readout": "pEC50", "Experimental result": 4.81}
{"Compound": "OC(c1nc2ccc(F)cc2[nH]1)C(O)c1nc2ccc(F)cc2[nH]1 (stereo not drawn)", "Readout": "pEC50", "Experimental result": 4.98}
{"Compound": "CCOCCCNC(=O)CCC(=O)NNc1nc2ccccc2c2nc(-c3ccccc3)nn12", "Readout": "pEC50", "Experimental result": 4.72}
